Ref: patent US6162815A

Each item that follows carries a reported AC50.
# System: RXR
# ASSAY TEXT: RXR transactivation test
# Assay type: cell-based
# CONDITIONS USED: read-out: RXR transactivation AC 50
Enter your answer as a number in nM; do not include the unit.

Worked set:
- Cc1cc2c(cc1Sc1ccc(C(=O)O)cc1)C(C)(C)CCC2(C)C: 300
- CC(C)c1cc2c(cc1Oc1ccc(C(=O)O)cc1)C(C)(C)CCC2(C)C: 495
- Cc1cc2c(cc1Oc1ccc(C(=O)O)cc1)C(C)(C)CCC2(C)C: 355
- Cc1cc2c(cc1Sc1ccc(C(=O)O)c(Cl)c1)C(C)(C)CCC2(C)C: 656
- Cc1cc2c(cc1Sc1ccc(C(=O)O)cn1)C(C)(C)CCC2(C)C: 48

Okay, next one:
Lookup: Name the recorded AC50 for CCc1cc2c(cc1Oc1ccc(C(=O)O)cc1)C(C)(C)CCC2(C)C .
Found: 279

###

# ASSAY TARGET: RXR
# ASSAY TEXT: RXR binding
ASSAY READOUT: Ki (nM)
Enter your answer as a number in nM; do not include the unit.

Worked set:
- CCc1cc2c(cc1Sc1ccc(C(=O)O)cc1)C(C)(C)CCC2(C)C [Example 20]: 3950
- Cc1cc2c(cc1Sc1ccc(C(=O)O)cn1)C(C)(C)CCC2(C)C [Example 17]: 538
- CCc1cc2c(cc1Oc1ccc(C(=O)O)cc1)C(C)(C)CCC2(C)C [Example 9]: 2820
- CC1(C)CCC(C)(C)c2cc(Oc3ccc(C(=O)O)cc3)c(Br)cc21 [Example 13]: 1130
- Cc1cc2c(cc1Sc1ccc(C(=O)O)cc1)C(C)(C)CCC2(C)C [Example 8]: 3740

Okay, next one:
Lookup: Item CC(C)c1cc2c(cc1Oc1ccc(C(=O)O)cc1)C(C)(C)CCC2(C)C [Example 10] with RXR - Ki?
Found: 2480
